Target: von Willebrand factor (VWF) (Homo sapiens, UniProt P04275 P04275:764-2813)
Test details: filter; Bmax 79%; 2 mM CaCl2, 37 C
Test settings: tags: factor VIII free, Haematologic Technologies Inc; label: 5'-32P
Reported endpoint: Kd

# Binder, Reported endpoint, Endpoint value
rows = [
    ("ACGAACUGCCCUCGUAUUAUUUCGACGCACAGACGU (ssRNA, 2'-F C and U; 2'-OH A and G; 3' idT) [T89]", "Kd", "12 nM"),
    ("ACGAACUGCCCUCAGCUACUUUCAUGUUGCUGACGCACAGACGU (ssRNA, rAfCrGmAmAmCfUrGfCfCfCfUmCmAmGmCmUmAmCmUmUmUmCmAmUmGmUmUmGmCmUmGrAfCrGfCrAmCmAmGmAfCrGfU-idT) [T25 vrt13]", "Kd", "1.9 nM"),
]
